test: Long-term stability in spiked pooled human plasma
protocol.conditions: validation standard 2xLLOV
Consider the following molecules; for each one, report its Long-term stability, 1 month, -80°C Accuracy [%].
Numbers only, in %.

* COC(=O)N[C@@H](C)CNc1nccc(-c2cn(C(C)C)nc2-c2cc(Cl)cc(NS(C)(=O)=O)c2F)n1 [Encorafenib] | 93.5

For the 4 molecules below, give their Long-term stability, 1 month, -80°C Accuracy [%] values.
1. COc1cc2ncnc(Nc3ccc(F)c(Cl)c3)c2cc1NC(=O)/C=C/CN1CCCCC1 [Dacomitinib]
2. CCN1CCN(Cc2ccc(Nc3ncc(F)c(-c4cc(F)c5nc(C)n(C(C)C)c5c4)n3)nc2)CC1 [Abemaciclib]
3. COc1cc(N2CCC(N3CCN(C)CC3)CC2)ccc1Nc1ncc(Cl)c(Nc2ccccc2P(C)(C)=O)n1 [Brigatinib]
4. N#CC[C@H](C1CCCC1)n1cc(-c2ncnc3[nH]ccc23)cn1 [Ruxolitinib]

output:
[91.2, 90.1, 92.1, 93.0]

For the 8 molecules below, give their Long-term stability, 1 month, -80°C Accuracy [%] values.
1. Cc1ccc(NC(=O)c2ccc(CN3CCN(C)CC3)cc2)cc1Nc1nccc(-c2cccnc2)n1 [Imatinib]
2. CCOc1cc2ncc(C#N)c(Nc3ccc(OCc4ccccn4)c(Cl)c3)c2cc1NC(=O)/C=C/CN(C)C [Neratinib]
3. NC(=O)c1cccc2cn(-c3ccc([C@@H]4CCCNC4)cc3)nc12 [Niraparib]
4. CS(=O)(=O)CCNCc1ccc(-c2ccc3ncnc(Nc4ccc(OCc5cccc(F)c5)c(Cl)c4)c3c2)o1 [Lapatinib]
5. O=c1[nH]c(=O)n([C@H]2C[C@H](O)[C@@H](CO)O2)cc1C(F)(F)F [Trifluridine]
6. COc1cc2c(Nc3ccc(Br)cc3F)ncnc2cc1OCC1CCN(C)CC1 [Vandetanib]
7. C#Cc1cccc(Nc2ncnc3cc(OCCOC)c(OCCOC)cc23)c1 [Erlotinib]
8. COc1cc2ncnc(Nc3ccc(F)c(Cl)c3)c2cc1OCCCN1CCOCC1 [Gefitinib]

output:
1: 96.3; 2: 84.9; 3: 94.5; 4: 92.2; 5: 105.0; 6: 97.7; 7: 98.1; 8: 94.2

For the 2 molecules below, give their Long-term stability, 1 month, -80°C Accuracy [%] values.
1. Cc1cn(-c2cc(NC(=O)c3ccc(C)c(Nc4nccc(-c5cccnc5)n4)c3)cc(C(F)(F)F)c2)cn1 [Nilotinib]
2. CC1(C)CCC(CN2CCN(c3ccc(C(=O)NS(=O)(=O)c4ccc(NCC5CCOCC5)c([N+](=O)[O-])c4)c(Oc4cnc5[nH]ccc5c4)c3)CC2)=C(c2ccc(Cl)cc2)C1 [Venetoclax]

output:
1: 89.2; 2: 104.0

###

test: Short-term stability in spiked pooled human plasma (bench-top, 4 °C, 56 °C)
protocol.conditions: validation standard ULOV
Consider the following compounds; for each one, report its Short-time stability (24h, RT, without daylight) Accuracy [%].
Numbers only, in %.

* COc1cc2ncnc(Nc3ccc(F)c(Cl)c3)c2cc1NC(=O)/C=C/CN1CCCCC1 | 89.1
* CC(=O)Nc1cccc(-n2c(=O)n(C3CC3)c(=O)c3c(Nc4ccc(I)cc4F)n(C)c(=O)c(C)c32)c1 | 92.2

Next item in the queue.
input: Could you please provide reported Short-time stability (24h, RT, without daylight) Accuracy [%] for C[C@@H](Oc1cc(-c2cnn(C3CCNCC3)c2)cnc1N)c1c(Cl)ccc(F)c1Cl ? Thanks!
output: 89.5
